- experimental details: Pharmacokinetics (Tmax)
- Assay type: in vivo
- experimental context: blood, oral
readout kind: Tmax

-- ask Tmax lookup needed for OC[C@H]1O[C@@H](c2cc(Cc3ccc(C4CC4)cc3)c(Cl)c3c2CCO3)[C@H](O)[C@@H](O)[C@@H]1O , thanks.
-- reply 1 to 2 h
